Entries and their measured b':b" follow.
test system: muscarinic receptors (3H-QNB sites, cerebellum, mainly M2); assay: biochemical; format: binding, rat; conditions: (k) Ki(3H-QNB) frontal cortex : Ki(3H-QNB) cerebellum
Number, no unit, nothing else.

>>> df
                                   molecule  readout_value
0  C[C@H]1O[C@]2(CS1)CN1CCC2CC1 (relative stereo)           0.39

Form: item `O=C1CCCN1CC#CCN1CCCC1` ; test system muscarinic receptors (3H-QNB sites, cerebellum, mainly M2); b':b": 1.69

I looked up CC1OCC2(CN3CCC2CC3)S1 (centres unmarked) [compound 11] and its b':b" for muscarinic receptors (3H-QNB sites, cerebellum, mainly M2) was 0.49

Fill in: muscarinic receptors (3H-QNB sites, cerebellum, mainly M2) b':b" for CC1OCC2(CN3CCC2CC3)S1 (centres unmarked) [compound 8] = 0.73

For the molecule C[C@H]1O[C@@]2(CN3CCC2CC3)CS1(=O)=O (relative stereo) , the measured b':b" on muscarinic receptors (3H-QNB sites, cerebellum, mainly M2) was 0.77

* * *

molecular target: muscarinic receptors (3H-CD sites, frontal cortex); experiment: Displacement of 3H-CD from rat frontal cortex homogenate; conditions: (c') frontal cortex
readout type: Ki (nM)
Note: unit nM is implicit; provide only the numeric part.

The following molecules have reported results that may help.
>>> df
                                   molecule  readout_type  readout_value
0                     O=C1CCCN1CC#CCN1CCCC1            Ki            1.6
1  CC1OCC2(CN3CCC2CC3)S1 (stereo not drawn)            Ki           2300

Let's switch to this molecule now.
Reading of Ki for C[C@H]1O[C@@]2(CN3CCC2CC3)CS1(=O)=O (relative stereo) with muscarinic receptors (3H-CD sites, frontal cortex): 3060

* * *

Entries and their a:b" values follow.
system: muscarinic receptors (3H-QNB sites, cerebellum, mainly M2); test: biochemical; assay type: binding, rat; conditions: (h) Ki(3H-PZ) forebrain : Ki(3H-QNB) cerebellum
// response body must contain only the number

Some molecules with known a:b" results, for comparison:
>>> print(df.to_string())
                                   molecule                                       tgt  readout_value
0  C[C@@H]1O[C@]2(CS1)CN1CCC2CC1 (relative stereo) [compound 3]  muscarinic receptors (3H-QNB sites, cerebellum, mainly M2)           0.52
1  O=C1CCCN1CC#CCN1CCCC1 [compound 1, Oxotremorine]  muscarinic receptors (3H-QNB sites, cerebellum, mainly M2)           0.86
2  C[C@H]1O[C@]2(CS1)CN1CCC2CC1 (single isomer, unassigned) [compound 6]  muscarinic receptors (3H-QNB sites, cerebellum, mainly M2)            0.1
3  C[C@H]1O[C@]2(CS1)CN1CCC2CC1 (single isomer, unassigned) [Compound #5]  muscarinic receptors (3H-QNB sites, cerebellum, mainly M2)           0.14

// next item, a:b" requested
According to the records, this molecule C[C@H]1O[C@]2(CS1)CN1CCC2CC1 (relative stereo) [compound 4] displays a:b" of 0.07

Source: patent US4876260A
